Decide using melting point alone. Strictly below 80 °C: rule met. Equal to or above 80 °C: rule not met.

[
  {
    "compound": "CCc1ncnc(N2[C@@H]3CC[C@H]2CC(ON)C3)c1Cl (some centres unmarked)",
    "assigned_class": "rule met"
  },
  {
    "compound": "Cn1cc(C(=O)N2[C@@H]3CC[C@H]2CC(Oc2ccc(C(F)(F)F)cn2)C3)c(C(F)(F)F)c1 (some centres unmarked) [2.218]",
    "assigned_class": "rule not met"
  },
  {
    "compound": "CCc1ncnc(N2[C@@H]3CC[C@H]2CC(O)C3)c1Cl (some centres unmarked)",
    "assigned_class": "rule not met"
  },
  {
    "compound": "Cc1csc2c(N3[C@@H]4CC[C@H]3CC(Oc3cc(C(F)(F)F)ccn3)C4)ncnc12 (some centres unmarked)",
    "assigned_class": "rule met"
  }
]

Now look at this entry.
Inquiry: Quick check: melting point of O=C(NC1C[C@H]2CC[C@@H](C1)N2c1ncnc2sccc12)c1cccnc1 (some centres unmarked) under 80 °C?
Reply text: rule not met
